Just for reference, ChEMBL document CHEMBL3988442 is where these values come from.

Target: Chromo domain-containing protein 1 (Saccharomyces cerevisiae (strain ATCC 204508 / S288c) (Baker's yeast))
Assay: ScCHD-1 Enzyme Inhibition Assay
Format: functional
Parameters: scale not given: in the data most compounds retested in dose-response had high values
Settings: 30 µM
property label: Percent Effect (%)

| molecule | measured number |
| --- | --- |
| CCc1nc(C2CCCN2C(=O)CCc2cccs2)no1 (centres undefined) | -2.06 |
| CCc1nc(CCNC(=O)C2CCOC2)sc1C (centres undefined) | -0.947 |
| CS(=O)(=O)NCC1CCCN(C(=O)COc2ccc(F)cc2)C1 (centres undefined) | -6.15 |
| c1ncn(CC2CCCN2Cc2cn3ccsc3n2)n1 (centres undefined) | 1.9 |
| CN(CC(F)(F)F)C(=O)C1CSCN1C(=O)OC(C)(C)C (centres undefined) | -1.01 |
| COc1c(C2CCCN2CC(=O)Nc2cc(C)no2)c(C)nn1C (centres undefined) | 3.98 |
| CC(C)n1ccnc1C1CCN(C(=O)C2COc3ccccc3O2)CC1 (centres undefined) | -3.02 |
| COc1c(CNC2CCCOc3ccccc32)c(C)nn1C (centres undefined) | -1.97 |
| Clc1ccc(OCCCN2CCN(c3cnccn3)CC2)cc1 | -3.92 |
| CN(C)C(C)(C)CNC(=O)C(C)(C)c1ccccc1F | 105 |
| Cc1nc(C)n(CC2CCCN2Cc2cn3ccsc3n2)n1 (centres undefined) | -5.22 |
| O=C(NCc1cn2c(n1)CN(CC1CCOCC1)CC2)C1CCC1 | -0.655 |
| COC(=O)c1cccn1C1CCN(C(=O)c2cc(C)ccc2O)CC1 | -5.74 |
| CCc1ccc(NC(=O)C2OC(c3cccs3)=NN2C(C)=O)cc1 (centres undefined) | -26.1 |
| CCC1CN(C(=O)NCCOc2ccc3c(c2)OCO3)CCO1 (centres undefined) | -6.67 |
| CC(NC(=O)CCCOc1ccccc1Cl)c1ccncc1 (centres undefined) | 110 |
| Cc1nc(C)n(CC2CN(Cc3cccc4c3OCCO4)CCO2)n1 (centres undefined) | -8.32 |
| CC(NC(=O)N1CCC(OCc2ccccc2)CC1)c1nncn1C (centres undefined) | -8.27 |
| O=C(c1cc(C2CC2)on1)N1CC[C@]2(C[C@H](Oc3cccnc3)CO2)C1 | 0.522 |
